B1: Twister Ribozyme (parent)
chain: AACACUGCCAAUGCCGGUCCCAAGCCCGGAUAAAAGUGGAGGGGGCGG

Variants of: B1
assay procedure: self-cleavage, relative activity (ratio to wild type); higher = more cleavage; co-transcriptional
Kind request: treat 0.1 as inclusive, so self-cleavage at 0.1 or higher is fulfilled, anything lower is not fulfilled.

C15G C20G : not fulfilled
C5U C14U : fulfilled
G28A G42U : fulfilled
G16U C27G : fulfilled
G17A G24C : fulfilled
C5G A32C : fulfilled

Entry A1G A2C : is its self-cleavage no less than 0.1?
fulfilled

Entry G28U G36A : is its self-cleavage no less than 0.1?
fulfilled

Entry A1U C9G : is its self-cleavage no less than 0.1?
not fulfilled

These data points were gathered from the RNAGym collection of RNA variant scans (doi:10.7554/elife.80360).
